Test system: Pseudomonas aeruginosa
Assay: Antibacterial activity against Pseudomonas aeruginosa CCM 3955 after 24 hrs by microdilution method
Type: functional
Conditions: CCM 3955, 24 h
Parameter MIC: see the listing below.
Numbers only here, please. The scale is µg/mL.

[
  {
    "Compound": "CCCCCCCCCCCCCCCOP(=O)(CCN1C[C@@H](O)[C@@H](N)C1)OC[C@H]1O[C@@H](n2ccc(=O)[nH]c2=O)[C@H](O)[C@@H]1O (stereo not given in full)",
    "Target Or Test System": "Pseudomonas aeruginosa",
    "MIC, µg/mL": 25
  }
]

[ask] If you can, please state the reported MIC value of CCCCCCCCCCCCCCCOP(=O)(CCN(CCCNC(=N)N)CCCNC(=N)N)OC[C@H]1O[C@@H](n2ccc(=O)[nH]c2=O)[C@H](O)[C@@H]1O (stereo not given in full) .
[reply] 0.78

[ask] Would you kindly share the measured MIC for CCCCCCCCCCCCCOP(=O)(CCN(CCCNC(=N)N)CCCNC(=N)N)OC[C@H]1O[C@@H](n2ccc(=O)[nH]c2=O)[C@H](O)[C@@H]1O (stereo not given in full) ?
[reply] 3.13

[ask] Bench note: what MIC did CCCCCCCCCCCCCCCCOP(=O)(CCN(CCN)CCN)OC[C@H]1O[C@@H](n2ccc(=O)[nH]c2=O)[C@H](O)[C@@H]1O (stereo not given in full) show?
[reply] 3.13

[ask] Please report the recorded MIC for CCCCCCCCCCCCOP(=O)(CCN(CCCN)CCCN)OC[C@H]1O[C@@H](n2ccc(=O)[nH]c2=O)[C@H](O)[C@@H]1O (stereo not given in full) .
[reply] 3.13

Taken from ChEMBL document CHEMBL4038308.
